# experiment-notes: Pharmacokinetics assay in rats after intragastrical administration
# Type: in vivo
# settings: both sexes, Sprague-Dawley, rat, plasma, po, SD rats, 2 mg/kg, read-out: Residence time MRT
# Description: Rats were used as test animals. The drug concentration in plasma at different time points was determined by LC/MS/MS method after intragastrical administration of the compounds of Examples 1-1, 1-2, 2-1, 3-1, the compound with retention time of 6.631 minutes among Examples 9-1 and 9-2, and the compounds of Examples 33 and 39-1 to rats. The pharmacokinetic behavior of the compounds of the present invention was studied and evaluated in rats. […]
Cut-off 2 h on MRT: below means Criterion met, at or above means Criterion not met.

# compound, category
data = [
    ("Cc1cccc(-c2nc3n(c2-c2ccc4nnc(C(N)=O)n4c2)[C@H]2CC[C@@H]3C2)n1 [Example 2-1]", "Criterion not met"),
    ("Cc1cccc(-c2nc3n(c2-c2ccc4nccc(C(N)=O)c4c2)[C@@H]2CC[C@H]3C2)n1 [Example 1-2]", "Criterion not met"),
    ("Cc1cccc(-c2nc3n(c2-c2ccnc(-c4ccc(S(C)(=O)=O)cc4)c2)[C@H]2CC[C@@H]3C2)n1 [Example 3-1]", "Criterion met"),
    ("NC(=O)c1ccnc2ccc(-c3c(-c4ccc(F)cn4)nc4n3[C@H]3CC[C@@H]4C3)cc12 [Example 39-1]", "Criterion not met"),
    ("Cc1cccc(-c2nn3c(c2-c2ccnc(-c4ccc(S(C)(=O)=O)cc4)c2)C2CCC3CC2)n1 [Example 33]", "Criterion met"),
    ("Cc1cccc(-c2nc3n(c2-c2ccc4nccc(C(N)=O)c4c2)[C@H]2CC[C@@H]3C2)n1 [Example 1-1]", "Criterion not met"),
]
